Value source: patent US20220048967A1

- System: human GLP-1 receptor (GLP-1R) (human, UniProt P43220 24-463)
- Assay Remarks: cell-based or functional assay
Numbered stars: 1 amine (or outer) side, 2 acyl side, 3 side chain; on linkers, the order of the positions; unused ones are H or OH. Square brackets hold non-standard residues; d marks the D form. Side chains are listed from the residue outwards. Ends that are not written are not given here. * marks the point of attachment. C20 diacid = O=C(O)CCCCCCCCCCCCCCCCCCC(=O)*; γGlu = O=C(O)[C@H](CCC(=O)[*:2])N[*:1]; αMeF = C[C@](N)(Cc1ccccc1)C(=O)O; AEEA = NCCOCCOCC(=O)O; Aib = CC(C)(N)C(=O)O

[
  {
    "Binder": "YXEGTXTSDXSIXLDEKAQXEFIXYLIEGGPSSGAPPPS (Y-Aib-EGT-αMeF(2F)-TSD-(D-Tyr)-SI-αMeF-LDEK((2-[2-(2-Amino-ethoxy)-ethoxy]-acetyl)2-(γ-Glu)-CO-(CH2)18-CO2H)AQ-Aib-EFI-(D-Glu)-YLIEGGPSSGAPPPS-NH2) [Example 184]",
    "hGLP1R cAMP EC50 ratio": 0.135
  },
  {
    "Binder": "Y[Aib]EGT[αMeF]TSDYSIXLDKK([AEEA-AEEA-γGlu-C20 diacid])AQ[Aib]EFIEYLIEGGPSSG-NH2 (not fully specified (residue 13); printed as Y-Aib-EGT-αMeF-TSDYSI-αMeF-LDKK((2-[2-(2-Amino-ethoxy)-ethoxy]-acetyl)2-(γ-Glu)-CO-(CH2)18-CO2H)AQ-Aib-EFIEYLIEGGPSSG-NH2) [Example 123]",
    "hGLP1R cAMP EC50 ratio": 1.58
  },
  {
    "Binder": "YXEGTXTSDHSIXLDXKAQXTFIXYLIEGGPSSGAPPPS (Y-Aib-EGT-αMeF(2F)-TSDHSI-αMeF-LD-Orn-K((2-[2-(2-Amino-ethoxy)-ethoxy]-acetyl)2-(γ-Glu)-CO-(CH2)18-CO2H)AQ-Aib-TFI-(D-Glu)-YLIEGGPSSGAPPPS-NH2) [Example 171]",
    "hGLP1R cAMP EC50 ratio": 0.0609
  },
  {
    "Binder": "YXEGTXTSDVSIXLDEKAQXEFIXYLIEGGPSSGAPPPS (Y-Aib-EGT-αMeF(2F)-TSDVSI-αMeF-LDEK((2-[2-(2-Amino-ethoxy)-ethoxy]-acetyl)2-(γ-Glu)-CO-(CH2)18-CO2H)AQ-Aib-EFI-(D-Glu)-YLIEGGPSSGAPPPS-NH2) [Example 191]",
    "hGLP1R cAMP EC50 ratio": 1.6
  }
]
